# Assay Procedure: gradient 5% acetonitrile 3 min, to 50% in 2 min, to 85% in 15 min, held 3 min, 100 µL/min
# Particulars: column: Zorbax Extend-C18 2.1 x 50 mm; eluents: water / acetonitrile, 0.1% formic acid
Here, each record is paired with measured RP-LC retention time data.

{"columns": ["Molecule", "Unit Symbol", "RP-LC retention time"],
 "data": [
  ["COc1ccc2c(c1)C1(CCN(C(=O)c3cccc(Cl)c3)C1)C(=O)N2 (stereo not given)", "s", 753],
  ["Cc1nc(N2CCN(c3ccccn3)CC2)c2c(C)c(C(=O)Nc3ccc(F)cc3F)sc2n1", "s", 701],
  ["Cc1noc(-c2nn(C)c3c2CN(C(=O)COc2ccccc2)CC3)n1", "s", 729],
  ["CCOc1ccc(-c2[nH]nc3nc(-c4cccc(F)c4)cc(C(=O)O)c23)cc1", "s", 843],
  ["CCOc1ccc(S(=O)(=O)N2CCC(C(=O)NCCOC)CC2)cc1", "s", 709]
]}

---

# Assay Procedure: gradient 5% acetonitrile 3 min, to 50% in 2 min, to 85% in 15 min, held 3 min, 100 µL/min
# Particulars: column: Zorbax Extend-C18 2.1 x 50 mm; eluents: water / acetonitrile, 0.1% formic acid

{"columns": ["Molecule", "Unit Symbol", "RP-LC retention time"],
 "data": [
  ["O=S(=O)(c1ccc2c(c1)CCCC2)N1CCCC1c1nc(-c2ccc(Cl)cc2)no1 (stereo unspecified)", "s", 1370],
  ["O=C(Nc1cccc(C(F)(F)F)c1)c1ccc(-n2cnc(NC(=O)C3CC3)c2)cc1", "s", 872],
  ["Nc1nc(-c2ccccc2)c(C(=O)c2ccccc2)s1", "s", 706],
  ["Cc1ccccc1-n1c(/C=C\\c2ccccn2)nc2ccccc2c1=O", "s", 948],
  ["COc1cccc(CCC(=O)N2CCc3cc(-c4csc(C)n4)ccc32)c1", "s", 1040],
  ["COc1ncc(C(=O)N2CCCC2)cn1", "s", 589],
  ["CCOC(=O)Cc1c(C)nc2c(-c3ccccc3)c(C)nn2c1C", "s", 1080],
  ["COC1C(=O)N(CC2CC2)C12CCN(C(=O)C(C)C)CC2 (stereo unspecified)", "s", 686],
  ["CCOC(=O)N1CCN(CC(O)COc2ccc(Cl)cc2Cl)CC1 (stereo unspecified)", "s", 589],
  ["CCN1C(=O)COc2ccc(-c3nc(NC(=O)c4cccc(OC)c4)sc3C)cc21", "s", 1040],
  ["COCCC(=O)N1CCCN(C2=NS(=O)(=O)C(c3ccc(C(C)C)cc3)=C2C)CC1", "s", 817],
  ["COc1ccc(-c2cn3c(CC(=O)Nc4cc(F)ccc4F)csc3n2)cc1OC", "s", 744],
  ["COc1cc(NC(=O)c2cc(C)n3nc(C)cc3n2)cc(OC)c1OC", "s", 847],
  ["CCOC(=O)c1nn(-c2ccc(F)cc2)c(=O)cc1NCC1CCCO1 (stereo unspecified)", "s", 766],
  ["COC(=O)c1ccc2c(=O)n(-c3cccc(OC)c3)c(N3CCN(c4ccccn4)CC3)nc2c1", "s", 705],
  ["CCOC(=O)C1CCN(C2=NS(=O)(=O)c3ccccc32)CC1", "s", 739],
  ["O=C(Cc1nnc(-c2ccc3ncccc3c2)o1)NCCc1ccccc1", "s", 702],
  ["CCc1cc(C(=O)NCc2ccc(C)o2)nc2cc(-c3ccccn3)nn12", "s", 778],
  ["CC(=O)c1ccc(NC(=O)CN2C(=O)NC3(CCCCC3)C2=O)cc1", "s", 717],
  ["CCNC(=O)N(C)Cc1ccc(C)s1", "s", 722],
  ["COc1cc(OC)c(NC(=O)NC2CCN(c3ccc(F)cc3)C2=O)cc1Cl (stereo unspecified)", "s", 854],
  ["Cc1cccc(-c2noc(-c3nn(CC(=O)N4CCCC4)c4ccccc34)n2)c1", "s", 1080],
  ["Cc1cc(N2CCCC2)n2nc(CN3CCN(c4cccc(Cl)c4)CC3)nc2n1", "s", 663],
  ["COc1ccccc1-c1noc(C2CCCN2C(=O)Nc2cc(C)ccc2C)n1 (stereo unspecified)", "s", 906],
  ["O=C1[C@H]2CN(Cc3ccccc3Cl)C[C@H]2C(=O)N1Cc1ccc2c(c1)OCO2", "s", 930],
  ["Cc1ccc(NC(=O)Cn2cnc3nc(N4CCCC(C(=O)NC5CC5)C4)sc3c2=O)c(F)c1 (stereo unspecified)", "s", 680],
  ["O=C(c1cccs1)N1CCCC(c2nncn2-c2ccccc2)C1 (stereo unspecified)", "s", 688],
  ["COCC(=O)N1CCCC(c2nc(CNC(=O)C3CCC3)cs2)C1 (stereo unspecified)", "s", 597],
  ["COc1cccc(-c2noc(C3CCCN3C(=O)Nc3ccccc3OC)n2)c1 (stereo unspecified)", "s", 1020],
  ["O=c1ccn(-c2ccc(F)c(F)c2)nc1-c1nc(-c2ccccc2)no1", "s", 878],
  ["Cn1c(=O)n([C@@H]2CCN(C(=O)C3CCC3)C2)c2ncccc21", "s", 639]
]}

---

# Assay Procedure: gradient 5% acetonitrile 3 min, to 50% in 2 min, to 85% in 15 min, held 3 min, 100 µL/min
# Particulars: column: Zorbax Extend-C18 2.1 x 50 mm; eluents: water / acetonitrile, 0.1% formic acid

{"columns": ["Molecule", "Unit Symbol", "RP-LC retention time"],
 "data": [
  ["Cc1ccc(C(=O)NCC2CCCO2)cc1 (stereo not drawn)", "s", 642],
  ["CCOC(=O)c1cnc2c(C)c(Cl)ccc2c1NCCN(C)C", "s", 562],
  ["CN1C(=O)COc2cc(-c3noc(C(=O)NCC4CCCO4)n3)ccc21 (stereo not drawn)", "s", 702]
]}

---

Here, each record is paired with measured RP-LC retention time data.
# Assay Procedure: gradient 5% acetonitrile 3 min, to 50% in 2 min, to 85% in 15 min, held 3 min, 100 µL/min
# Particulars: column: Zorbax Extend-C18 2.1 x 50 mm; eluents: water / acetonitrile, 0.1% formic acid
Observed Property: RP-LC retention time

{"columns": ["Compound", "Reported Value"],
 "data": [
  ["O=S(c1cc(Cl)cc(Cl)c1O)c1cc(Cl)cc(Cl)c1O", "1160 s"],
  ["CC(C)CN1Cc2ccccc2-n2ccnc2C12CCN(C(=O)c1ccccc1F)CC2", "650 s"],
  ["COc1ccccc1NC(=O)C1CCN(c2cnc(N3CCCCCC3)nc2)CC1", "826 s"],
  ["Cc1ccc(-c2cc3c(N4CCCC(C(=O)NC5CC5)C4)nccn3n2)c(C)c1 (stereo not drawn)", "782 s"],
  ["COc1cccc(C2c3c(oc4ccc(C)cc4c3=O)C(=O)N2CCCN2CCOCC2)c1OC (stereo not drawn)", "808 s"],
  ["COc1ccc(-c2nnc(-c3cc(S(=O)(=O)NCc4ccco4)ccc3Cl)o2)cc1", "964 s"],
  ["Cc1c(C(=O)NCc2ccc(OC(C)C)cc2)cc(-c2ccccc2)n1C", "1080 s"],
  ["CCC(CC)C(=O)N1CCN(c2ccc(=O)n(-c3ccc(Cl)cc3)n2)CC1", "887 s"],
  ["Cc1nc(-c2cn(C)c3ncccc23)sc1C(=O)Nc1ccccc1F", "922 s"],
  ["O=C(Cn1cnc2c(nc3n2CCCCC3)c1=O)N1CCN(Cc2ccc3c(c2)OCO3)CC1", "588 s"],
  ["CCc1ccc(C2=C(C)C(N3CCCN(C(=O)c4cccs4)CC3)=NS2(=O)=O)cc1", "893 s"],
  ["CC(=O)N1CCC2(CC1)OC(=O)C(C)=C2C(=O)NCc1ccccc1Br", "721 s"],
  ["Cc1ccc(Nc2c(-c3ccc(N4CCOCC4)cc3)nc3cnccn23)cc1", "848 s"],
  ["CCC(=O)N1CCc2cc(N3CC(C(=O)NCc4ccco4)CC3=O)ccc21 (stereo not drawn)", "667 s"],
  ["CCOc1cc(S(=O)(=O)Nc2ncccc2C)ccc1Br", "666 s"],
  ["CCOC(=O)C1CCN(C(=O)C2CCc3nc(N(CC)CC)ncc3C2)CC1 (stereo not drawn)", "630 s"],
  ["Cc1cc(NC(=O)N2CCN(CCn3c(C)nc4cccnc43)CC2)ccc1Br", "641 s"],
  ["O=C(NCC(c1cccs1)S(=O)(=O)c1ccc(F)cc1)c1nc2ccccc2s1 (stereo not drawn)", "948 s"],
  ["CCN(CC)c1ccc(-c2noc(CN3CCC(C)CC3)n2)cn1", "593 s"],
  ["COc1ccccc1-c1nc(Cn2nnc(-c3nc(-c4ccccn4)no3)c2C)c(C)o1", "827 s"],
  ["Cc1cccc(-c2nocc2CCC(=O)NC(C)c2ccc(F)cc2)c1 (stereo not drawn)", "965 s"],
  ["COCCCNC(=O)C1CCCN(c2ccc(=O)n(-c3ccc(OC)cc3)n2)C1 (stereo not drawn)", "658 s"],
  ["O=C(NCCn1ncc2c(=O)n(Cc3ccccc3F)cnc21)c1ccc2c(c1)OCO2", "678 s"]
]}
